Tested on: uptake of the choline
assay_summary: inhibition of the uptake of choline by synaptosomes of the rat's brain, striatum
Format: biochemical
condition_label: rat brain synaptosomes, in vitro, striatum
Recorded IC50 for the following compounds

>  <compound>
c1ccc(C2CN3CCC2(c2ccccc2)CC3)cc1 (centres unmarked) [Example 4, 3,4-diphenyl-1-aza-[2,2,2]-bicyclooctane]

>  <endpoint_unit>
µM

>  <IC50>
25

$$$$
>  <compound>
CN(C)CCCN1c2ccccc2CCc2ccccc21 [Imipramine, reference compound]

>  <endpoint_unit>
µM

>  <IC50>
30

$$$$

###

assay_summary: acute toxicity, oral, male mouse CD1
condition_label: in vivo, 3 days observation

>  <compound>
c1ccc(C2CN3CCC2(c2ccccc2)CC3)cc1 (stereo not shown) [Example 4, 3,4-diphenyl-1-aza-[2,2,2]-bicyclooctane]

>  <endpoint_unit>
mg/kg

>  <LD50 at 72 h>
200

$$$$
